Target: human PDE4B1 (Homo sapiens (Human), UniProt Q07343)
Sequence (Q07343 whole entry): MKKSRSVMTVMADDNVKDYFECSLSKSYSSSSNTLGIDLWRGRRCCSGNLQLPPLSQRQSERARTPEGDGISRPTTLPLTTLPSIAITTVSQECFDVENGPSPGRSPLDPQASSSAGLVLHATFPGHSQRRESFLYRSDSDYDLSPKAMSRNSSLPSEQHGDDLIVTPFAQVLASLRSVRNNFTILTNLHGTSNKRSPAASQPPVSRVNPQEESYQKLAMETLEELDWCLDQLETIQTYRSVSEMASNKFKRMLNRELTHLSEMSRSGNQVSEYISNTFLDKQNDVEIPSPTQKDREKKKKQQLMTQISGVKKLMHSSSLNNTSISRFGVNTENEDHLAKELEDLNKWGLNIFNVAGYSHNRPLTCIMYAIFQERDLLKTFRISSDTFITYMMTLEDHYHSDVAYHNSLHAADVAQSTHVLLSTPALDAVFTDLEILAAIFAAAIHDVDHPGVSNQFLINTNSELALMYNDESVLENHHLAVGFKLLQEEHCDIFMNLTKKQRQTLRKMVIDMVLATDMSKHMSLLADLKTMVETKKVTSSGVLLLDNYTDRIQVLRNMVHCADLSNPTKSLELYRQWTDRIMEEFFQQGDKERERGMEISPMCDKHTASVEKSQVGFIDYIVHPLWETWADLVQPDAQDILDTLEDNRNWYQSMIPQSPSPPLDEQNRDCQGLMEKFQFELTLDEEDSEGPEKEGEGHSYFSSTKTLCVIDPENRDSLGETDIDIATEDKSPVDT
Experiment: cAMP HTRF assay to determine the activity of hPDE4B1
Conditions: human recombinant PDE4B1 expressed in Sf9 cells; cAMP 40 nM; N=1-2, n=2; read-out: PDE4B IC50-value
pIC50: −log10 of the molar value.
MEASURED ATTRIBUTE: pIC50

Below, each entry is followed by its recorded pIC50 result.
[[record]]
substance_smiles = "Cc1nc(-c2ccc(Cl)s2)nc2c1ccn2-c1ccc(C(=O)O)cc1"
obs_value = "> 6.00"

[[record]]
substance_smiles = "COc1ccc(-c2nc(C)c3c(n2)N(c2cccc(OCC(=O)N(C)C)c2)CC32CC2)cc1F"
obs_value = "5.00 to 6.00"

[[record]]
substance_smiles = "CCc1nc(-c2ccc(OC)c(F)c2)nc2c1ccn2-c1ccc(CC(=O)O)cc1"
obs_value = "> 6.00"

[[record]]
substance_smiles = "CCc1nc(-c2cccnc2OC)nc2c1ccn2-c1cccc(OCC(=O)N(C)C)c1"
obs_value = "> 6.00"

[[record]]
substance_smiles = "CCc1nc(-c2ccc(OC)nc2)nc2c1ccn2-c1cccc(OCC(=O)N(C)C)c1"
obs_value = "5.00 to 6.00"


// returns reported pIC50 for input CCc1nc(-c2ccc(Cl)s2)nc2c1CCN2c1ccc(C(=O)O)cc1
> 6.00

Entry CCc1nc(-c2ccc(OC)c(F)c2)nc2c1CCN2c1cccc(OCC(=O)N(C)CC2CC2)c1 please
5.00 to 6.00

Let us now turn to CCc1nc(-c2ccc(OC)c(F)c2)nc2c1CCN2c1ccc(C(=O)O)cc1
5.00 to 6.00

# iterate: CCc1nc(-c2ccc(OC)c(Cl)c2)nc2c1CCN2c1ccc(CC(=O)O)cc1
> 6.00

// same read-out, input: COc1ccc(-c2ncc3c(n2)N(c2cccc(OCC(=O)N(C)C)c2)CC32CC2)cc1F
5.00 to 6.00

Further, for CCc1nc(-c2ccc(OC)c(F)c2)nc2c1CCN2c1cccc(OCC(=O)N(C)C)c1 ?
> 6.00

Same read-out for Cc1nc(-c2ccc(F)c(F)c2)nc2c1ccn2-c1ccc(C(=O)O)cc1 ?
> 6.00

Another: COc1ccc(-c2nc(C)c3c(n2)N(c2ccc(CC(=O)O)cc2)CC3)cc1Cl
> 6.00

// query: COc1ccc(-c2nc(OC)c3ccn(-c4ccc(C(=O)O)cc4)c3n2)cc1Cl
5.00 to 6.00

For COc1ccc(-c2nc(SC)c3ccn(-c4ccc(CC(=O)O)cc4)c3n2)cc1F then?
5.00 to 6.00

Also, Cc1nc(-c2ccc(Cl)s2)nc2c1CCN2c1ccc(CC(=O)O)cc1 please.
> 6.00

Another molecule to look at: CCc1nc(-c2ccc(Cl)s2)nc2c1CCN2c1cccc(OCC(=O)N(C)C)c1
> 6.00
